The values you see were collected from a melting point compilation (Tetko et al.; mined from patent text by program, amines drawn as free bases though some values may be those of a salt).

Collected melting point values appear next to each entry.

1) CCCC[C@H](OCC[C@]1(C(=O)N2CCC(OCOC)CC2)C=CC=CC1)C(=O)N[C@@H](CC1CCCCC1)[C@@H](O)C(F)(F)CN(C)C :: 47 to 49 °C
2) Nc1cccc2c1OC1(CC1)C2=O :: 136 °C
3) COc1ccc(Cc2nc3cc(Cl)cc(CCO)c3o2)cc1OC1CCCC1 :: 74 to 76 °C

Give the measured melting point of O=[N+]([O-])c1cccc(C(O)CO)c1 (racemic) . 45 °C

Would you kindly repeat that for CCCCN(C(=O)CCCCC(=O)N(CCCC)C1CC(C)(C)NC(C)(C)C1)C1CC(C)(C)NC(C)(C)C1 ? 134 to 144 °C

Would you kindly repeat that for CCCCCCCc1ccc(NC(=O)Nc2ccccc2C(=O)NC2CCN(C(c3ccccc3)c3ccccc3)CC2)cc1 ? 173 to 175 °C

Would you kindly repeat that for Cc1ccc2c(Br)c(Cl)cc([N+](=O)[O-])c2n1 ? 141 to 142 °C

Would you kindly repeat that for CCOC(=O)c1nc2scc(COCc3ccccc3)c2c(=O)[nH]1 ? 155 to 156 °C

Would you kindly repeat that for COc1ccc(-c2coc3c(C)c(O)ccc3c2=O)cc1OC ? 234 °C

Would you kindly repeat that for Nc1ncc(-c2cccs2)nc1C(=O)Nc1cccnc1 ? 178 to 189 °C

Would you kindly repeat that for CC=CC(=O)NCc1ccccc1 ? 112 to 114 °C
